- procedureSummary: Cmax in nude mouse xenografted with KIF5B-RET BaF3 cells xenografted at 10 mg/kg, po qd for 14 days
- Assay type: ADME, organism-based
- Design: route oral, time 14 day, dose 10 mg/kg
- recordedConditions: in vivo
quantityKind: Cmax (µM)

So what's the measured Cmax for this one? COC(=O)N[C@H]1CC[C@@H](n2cc(-c3ccc(Cl)c(N)c3)c3c(N)ncnc32)CC1 8.3

Please answer likewise for COC(=O)NC12CCC(n3cc(-c4cc(N)c(Cl)cc4F)c4c(N)ncnc43)(CC1)CC2 8.4

###

- procedureSummary: AUC in BALB/c mouse at 2 mg/kg, iv measured by LC-MS/MS analysis
- Type: ADME, organism-based
- Parameters: dose 2 mg/kg
- recordedConditions: in vivo
quantityKind: AUC (µM·h)

(P) COC(=O)NC12CCC(n3cc(-c4cc(N)c(Cl)cc4F)c4c(N)ncnc43)(CC1)CC2
(Q) CC(=O)N1CCN([C@H]2C[C@@H](n3cc(-c4ccc(Cl)c(N)c4)c4c(N)ncnc43)C2)CC1
Returns: the label, P or Q , whose recorded AUC is the lower number. Respond with the label that goes with your answer. Q

###

- testedOn: Voltage-gated inwardly rectifying potassium channel KCNH2 (Homo sapiens)
- Sequence (Q12809 whole entry): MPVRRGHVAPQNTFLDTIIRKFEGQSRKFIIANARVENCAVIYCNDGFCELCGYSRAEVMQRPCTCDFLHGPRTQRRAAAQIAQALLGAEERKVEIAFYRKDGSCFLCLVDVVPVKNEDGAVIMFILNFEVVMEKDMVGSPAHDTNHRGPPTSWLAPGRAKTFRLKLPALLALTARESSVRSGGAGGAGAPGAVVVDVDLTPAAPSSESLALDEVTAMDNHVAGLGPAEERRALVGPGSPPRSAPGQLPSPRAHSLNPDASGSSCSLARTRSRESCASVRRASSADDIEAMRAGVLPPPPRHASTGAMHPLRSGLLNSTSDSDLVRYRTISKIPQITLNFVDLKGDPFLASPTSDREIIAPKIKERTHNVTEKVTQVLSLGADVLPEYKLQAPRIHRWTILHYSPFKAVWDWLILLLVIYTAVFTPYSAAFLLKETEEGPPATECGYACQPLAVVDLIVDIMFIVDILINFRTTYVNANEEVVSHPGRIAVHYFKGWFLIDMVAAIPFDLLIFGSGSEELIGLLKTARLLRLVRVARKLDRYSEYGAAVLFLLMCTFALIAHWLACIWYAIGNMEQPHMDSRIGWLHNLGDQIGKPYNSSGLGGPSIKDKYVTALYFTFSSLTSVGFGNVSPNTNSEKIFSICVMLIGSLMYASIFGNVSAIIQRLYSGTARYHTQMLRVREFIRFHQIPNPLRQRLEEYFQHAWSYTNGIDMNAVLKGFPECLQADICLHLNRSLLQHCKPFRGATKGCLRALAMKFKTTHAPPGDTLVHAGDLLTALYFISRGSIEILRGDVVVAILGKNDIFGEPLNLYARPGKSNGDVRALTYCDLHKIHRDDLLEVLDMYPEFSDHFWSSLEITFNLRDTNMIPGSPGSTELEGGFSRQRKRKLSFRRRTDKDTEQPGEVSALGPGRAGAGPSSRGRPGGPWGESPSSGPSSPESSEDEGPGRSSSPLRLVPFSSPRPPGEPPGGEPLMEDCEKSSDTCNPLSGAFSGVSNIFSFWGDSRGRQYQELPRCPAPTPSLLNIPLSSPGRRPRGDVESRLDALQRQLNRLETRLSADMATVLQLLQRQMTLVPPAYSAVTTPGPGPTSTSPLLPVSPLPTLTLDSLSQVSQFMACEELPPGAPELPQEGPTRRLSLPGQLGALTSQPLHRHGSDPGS
- procedureSummary: Displacement of [3H]-dofetilide from human ERG expressed in CHO cell after 90 mins by microbeta liquid scintillation counting method
- Format: cell-based
quantityKind: pIC50
pIC50 is defined as minus the log10 of a concentration measured in mol/L.

Given the entry COC(=O)N[C@H]1CC[C@@H](n2cc(-c3ccc(Cl)c(N)c3)c3c(N)ncnc32)CC1 , report its measured pIC50. 4.60

Further cases:
# input molecule: COC(=O)NC12CCC(n3cc(-c4ccc(Cl)c(N)c4)c4c(N)ncnc43)(CC1)CC2 ; wanted: its pIC50 5.00

###

- procedureSummary: Cmax in BALB/c mouse at 13.5 mg/kg, po measured by LC-MS/MS analysis
- Assay type: ADME, organism-based
- Parameters: route oral, dose 13.5 mg/kg
- recordedConditions: in vivo
quantityKind: Cmax (nM)
Could you give me the number in nM? Just the number is fine.

Quick one: Cmax of CC(=O)N1CCN([C@H]2C[C@@H](n3cc(-c4cc(O)ccc4F)c4c(N)ncnc43)C2)CC1 ? 200

###

- procedureSummary: AUC in BALB/c mouse at 3.4 mg/kg, iv measured by LC-MS/MS analysis
- Format: ADME, organism-based
- Design: dose 3.4 mg/kg
- recordedConditions: in vivo
quantityKind: AUC (µM·h)
Please state the figure in µM·h; there is no need to write the unit.

Which AUC is listed for CC(=O)N1CCN([C@H]2C[C@@H](n3cc(-c4cc(O)ccc4F)c4c(N)ncnc43)C2)CC1 ? 2

###

- procedureSummary: Half life in BALB/c mouse at 2 mg/kg, iv measured by LC-MS/MS analysis
- Assay type: ADME, organism-based
- recordedConditions: in vivo
quantityKind: half-life (h)

Look at this compound and give its reported half-life. COC(=O)NC12CCC(n3cc(-c4cc(N)c(Cl)cc4F)c4c(N)ncnc43)(CC1)CC2 16

(P) CC(=O)N1CCN([C@H]2C[C@@H](n3cc(-c4ccc(Cl)c(N)c4)c4c(N)ncnc43)C2)CC1
(Q) COC(=O)N[C@H]1CC[C@@H](n2cc(-c3ccc(Cl)c(N)c3)c3c(N)ncnc32)CC1
(R) COC(=O)NC12CCC(n3cc(-c4ccc(Cl)c(N)c4)c4c(N)ncnc43)(CC1)CC2
Arrange these 3 compounds in increasing order of half-life. Would you mind listing the labels in the order asked for? P, Q, R

###

- procedureSummary: Cmax in BALB/c mouse at 2 mg/kg, iv measured by LC-MS/MS analysis
- Assay type: ADME, organism-based
- Design: route intravenous, dose 2 mg/kg
- recordedConditions: in vivo
quantityKind: Cmax (µM)

So what does the record say about Cmax for CC(=O)N1CCN([C@H]2C[C@@H](n3cc(-c4ccc(Cl)c(N)c4)c4c(N)ncnc43)C2)CC1 ? 5.1

(a) COC(=O)NC12CCC(n3cc(-c4cc(N)c(Cl)cc4F)c4c(N)ncnc43)(CC1)CC2
(b) COC(=O)NC12CCC(n3cc(-c4ccc(Cl)c(N)c4)c4c(N)ncnc43)(CC1)CC2
(c) COC(=O)N[C@H]1CC[C@@H](n2cc(-c3ccc(Cl)c(N)c3)c3c(N)ncnc32)CC1
Please list these molecules in decreasing order of Cmax. Please express your ranking as an ordered list of the labels. c, b, a
(c: 14 µM, b: 5.6 µM, a: 3.5 µM)

###

- procedureSummary: Volume of distribution at steady state in BALB/c mouse at 2 mg/kg, iv measured by LC-MS/MS analysis
- Assay type: ADME, organism-based
- recordedConditions: in vivo, read-out: Vdss
quantityKind: Vd (L/kg)

Name the recorded Vd for CC(=O)N1CCN([C@H]2C[C@@H](n3cc(-c4ccc(Cl)c(N)c4)c4c(N)ncnc43)C2)CC1 . 1.3

(a) COC(=O)NC12CCC(n3cc(-c4ccc(Cl)c(N)c4)c4c(N)ncnc43)(CC1)CC2
(b) COC(=O)NC12CCC(n3cc(-c4cc(N)c(Cl)cc4F)c4c(N)ncnc43)(CC1)CC2
(c) COC(=O)N[C@H]1CC[C@@H](n2cc(-c3ccc(Cl)c(N)c3)c3c(N)ncnc32)CC1
Sort entries by Vd from minimum to maximum value. List each label, following the requested order. c, a, b

###

- procedureSummary: Clearance in BALB/c mouse at 2 mg/kg, iv measured by LC-MS/MS analysis
- Assay type: ADME, organism-based
- recordedConditions: in vivo
quantityKind: clearance (mL/min/kg)

What does the data say about its clearance? Entry: COC(=O)NC12CCC(n3cc(-c4ccc(Cl)c(N)c4)c4c(N)ncnc43)(CC1)CC2 1.4

Now give it for COC(=O)NC12CCC(n3cc(-c4cc(N)c(Cl)cc4F)c4c(N)ncnc43)(CC1)CC2 too. 1.8

(P) CC(=O)N1CCN([C@H]2C[C@@H](n3cc(-c4ccc(Cl)c(N)c4)c4c(N)ncnc43)C2)CC1
(Q) COC(=O)N[C@H]1CC[C@@H](n2cc(-c3ccc(Cl)c(N)c3)c3c(N)ncnc32)CC1
Kindly identify which of P and Q has the larger recorded clearance value. Answer = label. P

###

- procedureSummary: Cmax in BALB/c mouse at 10 mg/kg, po measured by LC-MS/MS analysis
- Type: ADME, organism-based
- Parameters: route oral, dose 10 mg/kg
- recordedConditions: in vivo
quantityKind: Cmax (µM)

In the examples that follow, each entry is paired with its recorded Cmax.
Query: Cmax; subject: COC(=O)NC12CCC(n3cc(-c4cc(N)c(Cl)cc4F)c4c(N)ncnc43)(CC1)CC2 7.9

Try this compound next: COC(=O)N[C@H]1CC[C@@H](n2cc(-c3ccc(Cl)c(N)c3)c3c(N)ncnc32)CC1 10

(I) COC(=O)NC12CCC(n3cc(-c4ccc(Cl)c(N)c4)c4c(N)ncnc43)(CC1)CC2
(II) CC(=O)N1CCN([C@H]2C[C@@H](n3cc(-c4ccc(Cl)c(N)c4)c4c(N)ncnc43)C2)CC1
From the items above, decide which of I and II has the lower Cmax reading. // caller expects the label of the chosen entry II

###

- procedureSummary: Cmax in BALB/c mouse at 3.4 mg/kg, iv measured by LC-MS/MS analysis
- Type: ADME, organism-based
- Design: route intravenous, dose 3.4 mg/kg
- recordedConditions: in vivo
quantityKind: Cmax (µM)
Unit µM implied. Number only.

Need Cmax of CC(=O)N1CCN([C@H]2C[C@@H](n3cc(-c4cc(O)ccc4F)c4c(N)ncnc43)C2)CC1 , thanks. 6.4

Entry source: ChEMBL document CHEMBL4831559
